Observed pIC50, system human PGI2 receptors (Homo sapiens).
Numbers only, as −log10 of the molar value.

pIC50 for O=C(O)COc1cccc2c1OCc1sc(SCC(c3ccccc3)c3ccccc3)nc1-2 is 7.21

Others:
pIC50 for O=C(O)COc1cccc2c1CCc1sc(S(=O)(=O)CC(c3ccccc3)c3ccccc3)nc1-2 is 7.68
